- assayed-system: recombinant human cathepsin S (Homo sapiens, UniProt P25774)
- Sequence (P25774 115-331): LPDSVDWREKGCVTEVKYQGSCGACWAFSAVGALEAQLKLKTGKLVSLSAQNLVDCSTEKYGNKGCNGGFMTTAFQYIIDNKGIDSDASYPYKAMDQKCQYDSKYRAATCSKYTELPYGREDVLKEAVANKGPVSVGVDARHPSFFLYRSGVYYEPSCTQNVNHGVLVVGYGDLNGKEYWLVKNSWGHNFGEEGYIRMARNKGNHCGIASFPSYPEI
- assay-name: in vitro cathepsin S assay
- condition-notes: substrate Z-Leu-Leu-4-methylcoumaryl-7-amide, pH 7.0, ambient temperature, read-out: IC50 for the inhibition of human cathepsin S
- Description: […]
Overview of reported pIC50 across a group of molecules:
Remember the convention: pIC50 equals -log10 of concentration in molar.

> print(dat)
                                   molecule  reported.measurement
1  N#Cc1ncc2cc(Cc3ccc(F)c(F)c3)n(CCc3ccc(Cl)cc3)c2n1 [Example 169]                  7.52
2  N#Cc1ncc2cc(Cc3ccc(N4CCCC4=O)cc3)n(CCC3CCCCC3)c2n1 [Example 179]                  7.46
3  N#Cc1ncc2cc(CN3CCCC3)n(CCC3CCCCC3)c2n1 [Example 278]                  7.48

get_value(item= CCCNC(=O)c1ccc(OCc2cc3cnc(C#N)nc3n2CCC2CCCCC2)c(Cl)c1 [Example 54] , readout=pIC50) returns 7.49

get_value(item= CC(C)CCn1c(Cc2cccs2)cc2cnc(C#N)nc21 [Example 193] , readout=pIC50) returns 8.39

get_value(item= CC(C)(C)CCn1c(Cc2ccc(CO)cc2)cc2cnc(C#N)nc21 [Example 175] , readout=pIC50) returns 8.29

get_value(item= CC(=O)N1CCC2(CCN(Cc3cc4cnc(C#N)nc4n3CCC3CCCCC3)CC2)C1 [Example 335] , readout=pIC50) returns 7.32
